Values from ChEMBL document CHEMBL3351573

Consider the following IC50 values measured on Cholinesterase (Equus caballus).
Sequence (P81908 whole entry): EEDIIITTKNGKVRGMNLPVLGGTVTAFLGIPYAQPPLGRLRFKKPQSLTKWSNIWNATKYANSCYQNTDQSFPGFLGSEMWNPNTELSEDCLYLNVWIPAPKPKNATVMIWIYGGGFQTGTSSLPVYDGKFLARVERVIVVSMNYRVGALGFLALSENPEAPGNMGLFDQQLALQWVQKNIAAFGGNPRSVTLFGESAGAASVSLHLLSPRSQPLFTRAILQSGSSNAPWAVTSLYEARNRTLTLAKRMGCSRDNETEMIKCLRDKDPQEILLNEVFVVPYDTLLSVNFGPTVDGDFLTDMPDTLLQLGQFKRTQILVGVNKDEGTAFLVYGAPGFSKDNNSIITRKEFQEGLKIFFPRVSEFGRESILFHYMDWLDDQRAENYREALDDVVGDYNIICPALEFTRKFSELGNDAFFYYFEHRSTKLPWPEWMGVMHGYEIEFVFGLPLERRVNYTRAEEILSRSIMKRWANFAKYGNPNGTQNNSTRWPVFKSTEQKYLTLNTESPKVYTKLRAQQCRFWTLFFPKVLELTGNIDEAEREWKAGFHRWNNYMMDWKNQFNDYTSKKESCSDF

entry_smiles | censoring_sign | IC50, µM
C[C@@H](CC[C@H]1C(CO)=CC[C@H]2C(C)(C)CCC[C@]12C)CC(=O)OCCCCCN1CCCC1 | = | 22.1
C[C@@H](CC[C@H]1C(CO)=CC[C@H]2C(C)(C)CCC[C@]12C)CC(=O)OCCCCCCN1CCOCC1 | > | 50
C[C@@H](CC[C@H]1C(CO)=CC[C@H]2C(C)(C)CCC[C@]12C)CC(=O)OCCCN1CCOCC1 | > | 50
C[C@@H](CC[C@H]1C(CO)=CC[C@H]2C(C)(C)CCC[C@]12C)CC(=O)OCCCN1CCCCC1 | = | 34.7
CCN(CC)CCCCCOC(=O)C[C@@H](C)CC[C@H]1C(CO)=CC[C@H]2C(C)(C)CCC[C@]12C | = | 27.2
C[C@@H](CC[C@H]1C(CO)=CC[C@H]2C(C)(C)CCC[C@]12C)CC(=O)OCCCCCCN1CCCC1 | = | 10.6
C[C@@H](CC[C@H]1C(CO)=CC[C@H]2C(C)(C)CCC[C@]12C)CC(=O)OCCCCN1CCOCC1 | > | 50
C[C@@H](CC[C@H]1C(CO)=CC[C@H]2C(C)(C)CCC[C@]12C)CC(=O)OCCCN1CCCC1 | = | 43.8
C[C@@H](CC[C@H]1C(CO)=CC[C@H]2C(C)(C)CCC[C@]12C)CC(=O)OCCN1CCCC1 | = | 17

----------
Consider the following IC50 values measured on UniProtKB P04058.
Sequence (P04058 whole entry): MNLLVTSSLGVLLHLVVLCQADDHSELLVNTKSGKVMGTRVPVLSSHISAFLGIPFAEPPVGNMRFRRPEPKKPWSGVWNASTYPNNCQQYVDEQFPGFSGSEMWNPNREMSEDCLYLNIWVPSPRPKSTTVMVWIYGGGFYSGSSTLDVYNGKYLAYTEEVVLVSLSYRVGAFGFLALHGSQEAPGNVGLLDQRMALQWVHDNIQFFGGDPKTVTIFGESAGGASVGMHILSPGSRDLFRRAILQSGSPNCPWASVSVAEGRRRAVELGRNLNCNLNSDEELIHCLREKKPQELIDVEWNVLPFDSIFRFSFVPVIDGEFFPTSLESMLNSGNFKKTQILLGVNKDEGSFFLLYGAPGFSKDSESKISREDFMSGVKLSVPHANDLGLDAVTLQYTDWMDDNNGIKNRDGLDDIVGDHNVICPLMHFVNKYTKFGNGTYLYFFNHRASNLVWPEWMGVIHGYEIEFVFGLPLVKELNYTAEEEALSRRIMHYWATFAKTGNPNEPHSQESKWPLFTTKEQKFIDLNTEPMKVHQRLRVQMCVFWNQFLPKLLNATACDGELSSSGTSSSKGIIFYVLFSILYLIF

entry_smiles | censoring_sign | IC50 (µM)
C[C@@H](CC[C@H]1C(CO)=CC[C@H]2C(C)(C)CCC[C@]12C)CC(=O)OCCN1CCCC1 | > | 50
C[C@@H](CC[C@H]1C(CO)=CC[C@H]2C(C)(C)CCC[C@]12C)CC(=O)OCCCN1CCCCC1 | = | 6.2
C[C@@H](CC[C@H]1C(CO)=CC[C@H]2C(C)(C)CCC[C@]12C)CC(=O)OCCCCN1CCCC1 | = | 3.2
CCN(CC)CCCCOC(=O)C[C@@H](C)CC[C@H]1C(CO)=CC[C@H]2C(C)(C)CCC[C@]12C | = | 9.4
CCN(CC)CCCOC(=O)C[C@@H](C)CC[C@H]1C(CO)=CC[C@H]2C(C)(C)CCC[C@]12C | = | 11.8
C[C@@H](CC[C@H]1C(CO)=CC[C@H]2C(C)(C)CCC[C@]12C)CC(=O)OCCCN1CCCC1 | = | 33.8
C[C@@H](CC[C@H]1C(CO)=CC[C@H]2C(C)(C)CCC[C@]12C)CC(=O)OCCCCCN1CCCCC1 | = | 14.7
C[C@@H](CC[C@H]1C(CO)=CC[C@H]2C(C)(C)CCC[C@]12C)CC(=O)OCCN1CCOCC1 | > | 50
CCN(CC)CCCCCCOC(=O)C[C@@H](C)CC[C@H]1C(CO)=CC[C@H]2C(C)(C)CCC[C@]12C | = | 17.8
C[C@@H](CC[C@H]1C(CO)=CC[C@H]2C(C)(C)CCC[C@]12C)CC(=O)OCCCN1CCOCC1 | > | 50
CCN(CC)CCOC(=O)C[C@@H](C)CC[C@H]1C(CO)=CC[C@H]2C(C)(C)CCC[C@]12C | > | 50
C[C@@H](CC[C@H]1C(CO)=CC[C@H]2C(C)(C)CCC[C@]12C)CC(=O)OCCCCCCN1CCCC1 | = | 13.5
C[C@@H](CC[C@H]1C(CO)=CC[C@H]2C(C)(C)CCC[C@]12C)CC(=O)OCCCCCN1CCCC1 | = | 5.5
C[C@@H](CC[C@H]1C(CO)=CC[C@H]2C(C)(C)CCC[C@]12C)CC(=O)OCCCCN1CCCCC1 | = | 15
C[C@@H](CC[C@H]1C(CO)=CC[C@H]2C(C)(C)CCC[C@]12C)CC(=O)O | = | 21.1
C[C@@H](CC[C@H]1C(CO)=CC[C@H]2C(C)(C)CCC[C@]12C)CC(=O)OCCCCCCN1CCOCC1 | > | 50
C[C@@H](CC[C@H]1C(CO)=CC[C@H]2C(C)(C)CCC[C@]12C)CC(=O)OCCCCCN1CCOCC1 | > | 50
